// provenance: ChEMBL document CHEMBL3433997

Test System: Solute carrier family 2, facilitated glucose transporter member 1 (Homo sapiens) (UniProt P11166)
Sequence (P11166 whole entry): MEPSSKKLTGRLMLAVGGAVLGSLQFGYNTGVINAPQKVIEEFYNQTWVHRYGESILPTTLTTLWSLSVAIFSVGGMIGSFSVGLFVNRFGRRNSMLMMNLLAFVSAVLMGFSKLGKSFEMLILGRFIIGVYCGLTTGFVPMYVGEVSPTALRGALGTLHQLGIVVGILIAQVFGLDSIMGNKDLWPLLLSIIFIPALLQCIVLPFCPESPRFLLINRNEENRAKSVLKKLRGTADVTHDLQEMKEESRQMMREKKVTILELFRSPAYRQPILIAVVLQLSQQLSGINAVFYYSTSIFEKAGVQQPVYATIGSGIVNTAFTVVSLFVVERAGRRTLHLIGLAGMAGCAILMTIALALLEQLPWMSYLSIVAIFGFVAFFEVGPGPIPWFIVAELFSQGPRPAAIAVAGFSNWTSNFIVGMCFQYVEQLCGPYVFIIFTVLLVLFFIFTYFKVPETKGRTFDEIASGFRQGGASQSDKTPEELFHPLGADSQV
Assay Details: ST_JUDE_LEISH: Cytotoxicity at 2uM final concentration against transgenic Leishmania Mexicana promastigotes LmGLUT1 that are glucose transport deficient and complemented with the human glucose transporter GLUT1. Activity is measured by DNA content using SYBR green in vitro
Assay type: functional
Property Name: inhibition (%)
Answer with a number only, understood to be in %.

[[record]]
compound = "COCCCNc1sc(S(=O)(=O)c2ccccc2)nc1S(=O)(=O)c1ccc(C)cc1"
result_value = -0.53


# get_value(readout='inhibition', item= O=C(Nc1ccc(CN2CCN(S(=O)(=O)c3ccc(Cl)s3)CC2)cc1)c1cccs1 )
8.13

Could you do the same for O=S(=O)(Nc1ccc(CCN2CCCCC2CCN2CCCC2)cc1)c1ccc(-c2ccccc2)cc1 (stereo not drawn) , please?
9.09

Could you do the same for CCOc1cc(Br)c(C(C)NC(=O)c2ccccc2)cc1OCC (stereo not drawn) , please?
1.08

Could you do the same for Cc1cc(Nc2ccc3c(c2)CCC3)n2ncnc2n1 , please?
0.63

Could you do the same for Cc1cc(=O)c(-c2ccc(Oc3cccc(OC(F)(F)F)c3)cc2)c(C)[nH]1 , please?
1.89

Could you do the same for COC(=O)C1(NC(=O)c2ccc(-n3nc(C)c(-c4ccccc4)c3N)cc2)CCCC1 , please?
2.04

Could you do the same for COc1cc(NC(=O)c2cc([N+](=O)[O-])ccc2NC(=O)CNC2CCCCC2C)cc(OC)c1 (stereo not drawn) , please?
7.57
